src = ChEMBL document CHEMBL3045439

Molecular target: Ecdysone receptor (Drosophila melanogaster, UniProt P20153+P34021)
Sequence (P34021 whole entry): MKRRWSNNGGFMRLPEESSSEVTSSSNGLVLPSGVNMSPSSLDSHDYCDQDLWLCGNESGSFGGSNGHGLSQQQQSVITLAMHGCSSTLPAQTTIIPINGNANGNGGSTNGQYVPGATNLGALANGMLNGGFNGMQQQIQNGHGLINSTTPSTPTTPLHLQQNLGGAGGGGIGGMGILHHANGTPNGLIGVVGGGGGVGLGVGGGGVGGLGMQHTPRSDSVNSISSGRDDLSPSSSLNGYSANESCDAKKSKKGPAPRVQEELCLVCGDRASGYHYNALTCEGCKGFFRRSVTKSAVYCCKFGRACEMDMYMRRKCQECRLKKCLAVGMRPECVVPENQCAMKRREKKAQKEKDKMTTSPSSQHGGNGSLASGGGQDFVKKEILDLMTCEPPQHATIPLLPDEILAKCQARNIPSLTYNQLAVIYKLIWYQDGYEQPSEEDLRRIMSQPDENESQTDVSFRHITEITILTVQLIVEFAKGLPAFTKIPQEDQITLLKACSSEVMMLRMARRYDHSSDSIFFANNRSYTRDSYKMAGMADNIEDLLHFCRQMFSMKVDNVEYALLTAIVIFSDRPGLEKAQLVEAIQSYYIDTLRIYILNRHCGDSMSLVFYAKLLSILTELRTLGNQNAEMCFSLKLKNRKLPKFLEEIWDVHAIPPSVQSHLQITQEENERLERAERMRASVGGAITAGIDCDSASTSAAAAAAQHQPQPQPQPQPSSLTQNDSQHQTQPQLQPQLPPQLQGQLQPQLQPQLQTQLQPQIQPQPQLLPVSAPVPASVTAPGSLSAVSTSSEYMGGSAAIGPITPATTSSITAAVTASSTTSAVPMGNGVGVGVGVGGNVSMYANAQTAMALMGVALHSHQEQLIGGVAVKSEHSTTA
Sequence (P20153 whole entry): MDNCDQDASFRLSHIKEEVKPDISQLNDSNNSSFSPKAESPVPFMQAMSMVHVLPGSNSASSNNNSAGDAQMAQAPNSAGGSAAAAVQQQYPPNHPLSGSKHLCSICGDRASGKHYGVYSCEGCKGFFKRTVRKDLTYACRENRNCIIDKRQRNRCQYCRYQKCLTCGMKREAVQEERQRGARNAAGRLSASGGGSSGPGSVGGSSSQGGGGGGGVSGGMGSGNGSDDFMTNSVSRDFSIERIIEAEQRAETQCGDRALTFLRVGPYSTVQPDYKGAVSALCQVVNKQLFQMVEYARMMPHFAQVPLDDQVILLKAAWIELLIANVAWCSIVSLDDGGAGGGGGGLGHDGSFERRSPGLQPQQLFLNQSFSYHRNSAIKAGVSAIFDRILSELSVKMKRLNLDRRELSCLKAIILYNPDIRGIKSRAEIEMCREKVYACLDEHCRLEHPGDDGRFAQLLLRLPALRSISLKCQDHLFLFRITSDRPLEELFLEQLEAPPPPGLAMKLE
Experiment: Binding affinity to Drosophila melanogaster EcR
EXPERIMENTAL_ENDPOINT: Ki (nM)
State the answer as a number, implicitly in nM.

Q) Quickly give me recorded Ki for CCc1ccc(C(=O)NN(C(=O)c2cc(C)cc(C)c2)C(C)(C)C)cc1 [TEBUFENOZIDE]
A) 251
